Target: Gcr1 (UniProt P07261)
Sequence: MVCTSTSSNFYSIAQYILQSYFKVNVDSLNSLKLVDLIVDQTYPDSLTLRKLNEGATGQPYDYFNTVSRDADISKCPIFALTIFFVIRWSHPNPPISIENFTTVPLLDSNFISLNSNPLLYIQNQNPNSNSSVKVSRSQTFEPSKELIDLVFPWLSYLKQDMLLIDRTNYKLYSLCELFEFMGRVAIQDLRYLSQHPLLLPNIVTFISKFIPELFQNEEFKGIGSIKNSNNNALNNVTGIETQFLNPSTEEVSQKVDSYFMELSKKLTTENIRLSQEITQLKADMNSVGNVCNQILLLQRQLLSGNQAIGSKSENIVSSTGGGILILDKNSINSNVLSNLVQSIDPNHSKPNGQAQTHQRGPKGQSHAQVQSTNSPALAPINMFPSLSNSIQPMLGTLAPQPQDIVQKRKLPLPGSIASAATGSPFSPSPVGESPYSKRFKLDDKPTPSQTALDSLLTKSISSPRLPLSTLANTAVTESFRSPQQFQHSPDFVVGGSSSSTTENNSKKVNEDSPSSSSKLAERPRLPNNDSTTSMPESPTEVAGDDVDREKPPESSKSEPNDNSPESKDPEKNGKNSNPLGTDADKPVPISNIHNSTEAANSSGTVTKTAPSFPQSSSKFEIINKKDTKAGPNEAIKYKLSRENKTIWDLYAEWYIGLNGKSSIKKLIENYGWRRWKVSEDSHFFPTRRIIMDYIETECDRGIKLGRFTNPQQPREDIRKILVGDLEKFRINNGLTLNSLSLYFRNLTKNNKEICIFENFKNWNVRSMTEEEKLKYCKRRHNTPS
Assay: PBM E-score (8-mer binding enrichment) (E-score (-0.5 to 0.5)); higher = stronger / more preferred TF binding
Conditions: protein concentration: 100 nM; construct: GST-full length
Whole data set: some 33,000 sequences, median “E-score (-0.5 to 0.5)” near -0.011, cut for the highest 2% near 0.28. This excerpt belongs to a sample that is enriched for the highest values.
endpointLabel: PBM E-score
Give the figure only, with no unit attached.

The examples below pair each entry with its known result.
>  <residues>
AACTGATC

>  <system>
Gcr1 (UniProt P07261)

>  <PBM E-score>
-0.114

$$$$
>  <residues>
ACGGCTTC

>  <system>
Gcr1 (UniProt P07261)

>  <PBM E-score>
0.238

$$$$

What the record says about CTAGCACA : PBM E-score is -0.181

What the record says about ACGGCTCG : PBM E-score is -0.105

What the record says about AAGCATCG : PBM E-score is 0.0291

What the record says about ATAGCATC : PBM E-score is 0.0848

What the record says about ACGGAGGC : PBM E-score is -0.00955
